Assay: aggregation and purification amounts of deglycosylated antibodies, before and after φ
Type: physicochemical
Settings: based on 100 ml culture
parameter: Final um, After φ (mg)

{"molecule": "Deglyco-C3: deglycosylated clone 1 IgG; light chain CDR1 TGSSSNIGWSNVT (SEQ ID NO: 4) (antibody, V domains shown) VH: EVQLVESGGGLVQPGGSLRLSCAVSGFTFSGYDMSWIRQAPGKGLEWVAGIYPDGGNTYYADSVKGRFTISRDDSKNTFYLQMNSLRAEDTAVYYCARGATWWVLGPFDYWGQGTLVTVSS VL: DIQLTQSPSSLSASVGDRVTITCTGSSSNIGWSNVTWYQQKPGKAPKLLIYADSHRPSGVPSRFSGSGSGTDFTLTISSLQPEDFATYYCGAWDDSLSGYVFGQGTKVEIKR", "assay-result": 2.768}
{"molecule": "Deglyco-C4: deglycosylated clone 1 IgG; light chain CDR1 TGSSSNIGAVVVT (SEQ ID NO: 5) (antibody, V domains shown) VH: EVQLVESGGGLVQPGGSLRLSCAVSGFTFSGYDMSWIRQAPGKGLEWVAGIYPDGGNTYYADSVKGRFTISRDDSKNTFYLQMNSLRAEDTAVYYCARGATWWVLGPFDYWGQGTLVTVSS VL: DIQLTQSPSSLSASVGDRVTITCTGSSSNIGAVVVTWYQQKPGKAPKLLIYADSHRPSGVPSRFSGSGSGTDFTLTISSLQPEDFATYYCGAWDDSLSGYVFGQGTKVEIKR", "assay-result": 1.442}
{"molecule": "Deglyco-C2: deglycosylated clone 1 IgG; light chain CDR1 TGSSSNIGATAVT (SEQ ID NO: 3) (antibody, V domains shown) VH: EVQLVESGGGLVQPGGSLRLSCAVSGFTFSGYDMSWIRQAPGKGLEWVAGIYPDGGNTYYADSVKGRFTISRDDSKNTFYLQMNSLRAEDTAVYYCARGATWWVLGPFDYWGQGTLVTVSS VL: DIQLTQSPSSLSASVGDRVTITCTGSSSNIGATAVTWYQQKPGKAPKLLIYADSHRPSGVPSRFSGSGSGTDFTLTISSLQPEDFATYYCGAWDDSLSGYVFGQGTKVEIKR", "assay-result": 5.018}
{"molecule": "deglyco C1 IgG: deglycosylated clone 1 IgG; light chain CDR1 TGSSSNIGRCGVT (SEQ ID NO: 2), N32R/N33C/S34G (antibody, V domains shown) VH: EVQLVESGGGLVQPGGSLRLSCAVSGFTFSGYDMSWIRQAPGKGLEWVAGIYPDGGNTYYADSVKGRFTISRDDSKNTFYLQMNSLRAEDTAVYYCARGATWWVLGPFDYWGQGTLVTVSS VL: DIQLTQSPSSLSASVGDRVTITCTGSSSNIGRCGVTWYQQKPGKAPKLLIYADSHRPSGVPSRFSGSGSGTDFTLTISSLQPEDFATYYCGAWDDSLSGYVFGQGTKVEIKR", "assay-result": 4.821}
